Task for the reader: assign each of the following compounds its reported CTG-3D luminescence at 96 h.
System: HCI-016 (organoid from a triple-negative breast cancer xenograft)
Procedure Details: CTG-3D luminescence at 96 h relative to day-0 seeding control (ratio to day 0); higher = more growth / less cytotoxicity; PDxO 3D drug screen (set 2), 96 h, CTG-3D normalised to day-0 seeding control.
Recorded Conditions: 100 µM; days in culture: 341
Numbers only.

>>> endpoint_result("CC(=O)c1c(C)c2cnc(Nc3ccc(N4CCNCC4)cn3)nc2n(C2CCCC2)c1=O [palbociclib]")
0.71
>>> endpoint_result("Cc1c(CN2CCN(C(=O)[C@H](C)O)CC2)sc2c(N3CCOCC3)nc(-c3cnc(N)nc3)nc12 [apitolisib]")
0.618
>>> endpoint_result("Nc1cc(C(F)(F)F)c(-c2cc(N3CCOCC3)nc(N3CCOCC3)n2)cn1 [buparlisib]")
0.484

Next, consider the following compound.
Data request: Dear colleague, please send me the reported CTG-3D luminescence at 96 h for CC(=O)O[C@@]12CO[C@@H]1C[C@H](O)[C@@]1(C)C(=O)[C@H](O)C3=C(C)[C@@H](OC(=O)[C@H](O)[C@@H](NC(=O)OC(C)(C)C)c4ccccc4)C[C@@](O)([C@@H](OC(=O)c4ccccc4)[C@H]21)C3(C)C [docetaxel] when you can.
Data returned: 0.11

====

Would you mind telling me the reported CTG-3D luminescence at 96 h of each entry?
Tested on: HCI-016
Procedure Details: CTG-3D luminescence at 96 h relative to day-0 seeding control (ratio to day 0); higher = more growth / less cytotoxicity; PDxO 3D drug screen (set 2), 96 h, CTG-3D normalised to day-0 seeding control.
Recorded Conditions: 625 fM; days in culture: 341
Give bare numbers.

The examples below pair each entry with its known result.
>>> endpoint_result("CC(=O)O[C@@]12CO[C@@H]1C[C@H](O)[C@@]1(C)C(=O)[C@H](O)C3=C(C)[C@@H](OC(=O)[C@H](O)[C@@H](NC(=O)OC(C)(C)C)c4ccccc4)C[C@@](O)([C@@H](OC(=O)c4ccccc4)[C@H]21)C3(C)C")
1.59
>>> endpoint_result("Cc1c(CN2CCN(C(=O)[C@H](C)O)CC2)sc2c(N3CCOCC3)nc(-c3cnc(N)nc3)nc12")
2.56
>>> endpoint_result("C[C@@H](Nc1cc(F)cc(F)c1)c1cc(C(=O)N(C)C)cc2c(=O)cc(N3CCOCC3)oc12")
2.55
>>> endpoint_result("CCOc1ccn(-c2ccc(F)cc2)c(=O)c1C(=O)Nc1ccc(Oc2ccnc(N)c2Cl)c(F)c1")
2.26

Pending compound:
Data request: Item `Nc1cc(C(F)(F)F)c(-c2cc(N3CCOCC3)nc(N3CCOCC3)n2)cn1` : provide CTG-3D luminescence at 96 h
Data returned: 2.59

====

Tested on: HCI-010 (organoid from a breast cancer xenograft)
Procedure Details: CTG-3D luminescence at 96 h relative to day-0 seeding control (ratio to day 0); higher = more growth / less cytotoxicity; PDxO 3D drug screen, 96 h, CTG-3D normalised to day-0 seeding control.
Recorded Conditions: 100 µM; days in culture: 52
Parameter threshold = 0.01. Response is 1.0 when CTG-3D luminescence at 96 h meets or exceeds it, else 0.0.

>>> class_assignment("NC1(C(=O)N[C@@H](CCO)c2ccc(Cl)cc2)CCN(c2nc[nH]c3nccc2-3)CC1 [capivasertib]")
1.0
>>> class_assignment("Cc1cc(Nc2ncc(Cl)c(Nc3ccccc3S(=O)(=O)C(C)C)n2)c(OC(C)C)cc1C1CCNCC1 [ceritinib]")
0.0

Data request: For this molecule, is measured CTG-3D luminescence at 96 h 0.01 or higher? CC(C)n1nc(-c2ccc3oc(N)nc3c2)c2c(N)ncnc21 [sapanisertib]
Data returned: 1.0

Data request: Is CTG-3D luminescence at 96 h at least 0.01? Consider `CC(C)(C(=O)NCC(F)(F)C(F)(F)F)C(=O)N[C@@H]1C(=O)Nc2ccccc2-c2ccccc21`
Data returned: 1.0

Data request: # check: CTG-3D luminescence at 96 h of Cc1cc(Nc2ncnc3ccc(NC4=NC(C)(C)CO4)cc23)ccc1Oc1ccn2ncnc2c1 [tucatinib] is greater than or equal to 0.01
Data returned: 1.0
